Test system: mice with inflammatory pain
Experimental details: Pain threshold of mice with inflammatory pain (complete Freund's adjuvant)
Type: in vivo, SD mice
Experimental context: complete Freund's adjuvant paw model; high dose 30 mg/kg ig once per day; 3 d
Metric name: Pain threshold

Take a look at these entries with their results.
compound="O=C(Nc1ccc(Cl)cc1)C1CCN(C(=O)c2ccc(O)cc2)CC1 [MAGLZ-II-10]" assayed_target="mice with inflammatory pain" result="7.95 ± 0.66 s"
compound="Cn1c(C(=O)N2CCC(C(=O)Nc3cccc(Cl)c3)CC2)cc2ccccc21 [MAGLZ-II-18 (c)]" assayed_target="mice with inflammatory pain" result="8.17±1.14^∗ s"
compound="O=C(Nc1cccc(Cl)c1)C1CCN(C(=O)c2cc3cc(F)ccc3[nH]2)CC1 [MAGLZ-II-18 (a)]" assayed_target="mice with inflammatory pain" result="9.35±1.2^∗∗∗ s"

get_value(item= O=C(Nc1cccc(Cl)c1)C1CCN(C(=O)c2cccc(O)c2)CC1 [MAGLZ-II-11] , readout=Pain threshold) returns 9.88±1.34^∗∗∗ s

// recorded Pain threshold for O=C(Nc1cccc(Cl)c1)C1CCN(C(=O)c2cc3ccccc3[nH]2)CC1 [MAGLZ-II-18] : 8.49±1.15^∗∗ s

Lab note: O=C(Nc1cccc(Cl)c1)C1CCN(C(=O)c2cc(O)ccc2F)CC1 [MAGLZ-II-11 (a)] gave Pain threshold of 9.55±1.58^∗∗∗ s

###

Test system: mice pain response induced by hot plate
Experimental details: Mice pain response induced by hot plate
Assay type: in vivo, ICR mice
Experimental context: hot plate 55°C; middle dose 15 mg/kg ig 7 d; 60 min
Hi! Just check whether Pain threshold is below 30 s. Below gives TRUE, equal or above gives FALSE.

compound="Cn1c(C(=O)N2CCC(C(=O)Nc3cccc(Cl)c3)CC2)cc2ccccc21 [MAGLZ-II-18 (c)]" assayed_target="mice pain response induced by hot plate" class_assignment=TRUE
compound="O=C(Nc1cccc(Cl)c1)C1CCN(C(=O)c2cc3ccccc3[nH]2)CC1 [MAGLZ-II-18]" assayed_target="mice pain response induced by hot plate" class_assignment=TRUE
compound="O=C(Nc1cccc(Cl)c1)C1CCN(C(=O)c2cccc(O)c2)CC1 [MAGLZ-II-11]" assayed_target="mice pain response induced by hot plate" class_assignment=FALSE
compound="O=C(Nc1cccc(Cl)c1)C1CCN(C(=O)c2cc3cc(F)ccc3[nH]2)CC1 [MAGLZ-II-18 (a)]" assayed_target="mice pain response induced by hot plate" class_assignment=FALSE
compound="O=C(Nc1cccc(Cl)c1)C1CCN(C(=O)c2cc(O)ccc2F)CC1 [MAGLZ-II-11 (a)]" assayed_target="mice pain response induced by hot plate" class_assignment=FALSE

Input: State whether 30 s exceeds Pain threshold recorded for O=C(Nc1ccc(Cl)cc1)C1CCN(C(=O)c2ccc(O)cc2)CC1 [MAGLZ-II-10] .
Output: TRUE

###

Tested on: irritable bowel syndrome rats
Experimental details: Irritable bowel syndrome rats induced by early maternal separation
Assay type: in vivo, SD rats
Experimental context: IBS rats; high dose 30 mg/kg ig 20 d
Below, each of the compounds is paired with its reported Colon 5-HT value.

// solved cases for Colon 5-HT follow
structure_smiles=O=C(Nc1cccc(Cl)c1)C1CCN(C(=O)c2cc3ccccc3[nH]2)CC1 result="14.33±2.10^∗∗∗ µg/mg"
structure_smiles=Cn1c(C(=O)N2CCC(C(=O)Nc3cccc(Cl)c3)CC2)cc2ccccc21 result="14.34±2.40^∗∗∗ µg/mg"
structure_smiles=O=C(Nc1cccc(Cl)c1)C1CCN(C(=O)c2cc3cc(F)ccc3[nH]2)CC1 result="13.90 ± 1.13 µg/mg"
structure_smiles=O=C(Nc1cccc(Cl)c1)C1CCN(C(=O)c2cc(O)ccc2F)CC1 result="12.65±3.36^∗∗∗ µg/mg"
structure_smiles=O=C(Nc1cccc(Cl)c1)C1CCN(C(=O)c2cccc(O)c2)CC1 result="12.00±2.93^∗∗∗ µg/mg"

Now consider a different compound.
Entry under test: `O=C(Nc1ccc(Cl)cc1)C1CCN(C(=O)c2ccc(O)cc2)CC1` . Its Colon 5-HT was 18.66±2.38^∗ µg/mg

###

System: irritable bowel syndrome rats
Experimental details: Irritable bowel syndrome rats induced by early maternal separation
Assay type: in vivo, SD rats
Experimental context: IBS rats; middle dose 15 mg/kg ig 20 d
Metric name: Serum 5-HT

The following compounds have reported results that may help.
compound="O=C(Nc1cccc(Cl)c1)C1CCN(C(=O)c2cc3cc(F)ccc3[nH]2)CC1 [MAGLZ-II-18 (a)]" metric_name="Serum 5-HT" result="30.20 ± 5.59 µg/mL"
compound="O=C(Nc1ccc(Cl)cc1)C1CCN(C(=O)c2ccc(O)cc2)CC1 [MAGLZ-II-10]" metric_name="Serum 5-HT" result="38.65 ± 2.68 µg/mL"
compound="O=C(Nc1cccc(Cl)c1)C1CCN(C(=O)c2cc(O)ccc2F)CC1 [MAGLZ-II-11 (a)]" metric_name="Serum 5-HT" result="29.89±5.34^∗∗∗ µg/ml"

O=C(Nc1cccc(Cl)c1)C1CCN(C(=O)c2cccc(O)c2)CC1 [MAGLZ-II-11] yielded Serum 5-HT of 29.47±4.91^∗∗∗ µg/ml

Looking up Cn1c(C(=O)N2CCC(C(=O)Nc3cccc(Cl)c3)CC2)cc2ccccc21 [MAGLZ-II-18 (c)] , I found its Serum 5-HT recorded as 31.88±4.40^∗∗ µg/ml

Query O=C(Nc1cccc(Cl)c1)C1CCN(C(=O)c2cc3ccccc3[nH]2)CC1 [MAGLZ-II-18] yields Serum 5-HT of 29.12±7.05^∗∗ µg/ml

###

Test system: mice pain response induced by hot plate
Experimental details: Mice pain response induced by hot plate
Format: in vivo, ICR mice
Experimental context: hot plate 55°C; low dose 7.5 mg/kg ig 7 d; 120 min
Cut-off 30 s on Pain threshold: below means yes, at or above means no.

compound="O=C(Nc1cccc(Cl)c1)C1CCN(C(=O)c2cc3cc(F)ccc3[nH]2)CC1 [MAGLZ-II-18 (a)]" assayed_target="mice pain response induced by hot plate" class_assignment=no
compound="O=C(Nc1cccc(Cl)c1)C1CCN(C(=O)c2cc3ccccc3[nH]2)CC1 [MAGLZ-II-18]" assayed_target="mice pain response induced by hot plate" class_assignment=yes
compound="O=C(Nc1cccc(Cl)c1)C1CCN(C(=O)c2cc(O)ccc2F)CC1 [MAGLZ-II-11 (a)]" assayed_target="mice pain response induced by hot plate" class_assignment=no
compound="O=C(Nc1cccc(Cl)c1)C1CCN(C(=O)c2cccc(O)c2)CC1 [MAGLZ-II-11]" assayed_target="mice pain response induced by hot plate" class_assignment=no
compound="Cn1c(C(=O)N2CCC(C(=O)Nc3cccc(Cl)c3)CC2)cc2ccccc21 [MAGLZ-II-18 (c)]" assayed_target="mice pain response induced by hot plate" class_assignment=yes

Please find the next compound below.
Input: For this compound, is Pain threshold lower than 30 s? O=C(Nc1ccc(Cl)cc1)C1CCN(C(=O)c2ccc(O)cc2)CC1 [MAGLZ-II-10]
Output: yes

###

Assayed target: recombinant human protein MAGL (Homo sapiens, UniProt Q99685)
Sequence (Q99685 1-303): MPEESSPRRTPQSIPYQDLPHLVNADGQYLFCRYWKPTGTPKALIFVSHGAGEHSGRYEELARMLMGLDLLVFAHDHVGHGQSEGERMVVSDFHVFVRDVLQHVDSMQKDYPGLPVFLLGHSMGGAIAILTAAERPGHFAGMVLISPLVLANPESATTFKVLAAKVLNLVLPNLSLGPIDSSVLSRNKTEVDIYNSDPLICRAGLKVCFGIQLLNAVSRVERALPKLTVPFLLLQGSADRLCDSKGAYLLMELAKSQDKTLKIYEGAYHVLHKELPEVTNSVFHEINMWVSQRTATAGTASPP
Experimental details: MAGL enzyme analysis (Cayman MAGL inhibitor screening kit)
Experimental context: 4-nitrophenylacetic acid substrate, absorbance 410 nm, read-out: MAGLXIC50
Lab note: cut-off is 300 nM. Strictly less in IC50 is t. Exactly 300 nM or more is f.

Reference set, count: 6
compound="CCCC(=O)Oc1cccc(C(=O)N2CCC(C(=O)Nc3cccc(Cl)c3)CC2)c1 [MAGLZ-II-11F]" class_assignment=t
compound=O=C(Nc1ccccc1)C1CCN(C(=O)c2ccc(Oc3ccccc3)cc2)CC1 class_assignment=t
compound=Cn1c(C(=O)N2CCC(C(=O)Nc3cccc(Cl)c3)CC2)cc2ccccc21 class_assignment=t
compound=O=C(Nc1cccc(Cl)c1)C1CCN(C(=O)c2cc3ccccc3[nH]2)CC1 class_assignment=f
compound=COc1cccc(C(=O)N2CCC(C(=O)Nc3cccc(Cl)c3)CC2)c1 class_assignment=f
compound=O=C(Nc1cccc(Cl)c1)C1CCN(C(=O)c2ccc3ccccc3c2)CC1 class_assignment=t

Input: Consider `O=C(Nc1cccc(Cl)c1)C1CCN(C(=O)c2cc(O)ccc2F)CC1` . Does its IC50 lie strictly below 300 nM?
Output: f

Input: A record lists `O=C(Nc1cccc(Cl)c1)C1CCN(C(=O)c2ccc3cc(O)ccc3c2)CC1` . Is its IC50 below 300 nM?
Output: t

Input: Take the compound `O=C(Nc1ccc(Cl)c(Cl)c1)C1CCN(C(=O)c2ccc3ccccc3c2)CC1` and say whether its IC50 is less than 300 nM.
Output: t
